# tested.on: SMYD3 (Homo sapiens (Human))
# assay.overview: SMYD3 cell assay (Trimethyl-MEKK2 In-Cell Western in 293T/17 cells)
# Type: cell-based
# condition.details: 293T/17 cells; read-out: SMYD3 Cell IC50 (μM)*
Task for the reader: assign each of the following molecules its reported IC50.
Reply numerically in µM, unit not repeated.

Documented IC50 of C[C@H]1C[C@@H](NC(=O)c2cc(C3CC3)on2)CCN1S(=O)(=O)C1CCOC1 (stereo partly shown) : 2.83

In plain terms, C[C@H]1C[C@@H](NC(=O)c2cc(C3CC3)on2)CCN1S(=O)(=O)CC1CCNCC1 (single isomer, unassigned) has a documented IC50 of 0.0508

Just so you know, measured IC50 for C[C@H]1C[C@H](NC(=O)c2cc(C3CC3)on2)CCN1S(=O)(=O)c1ccc(NCCN)nc1 came out at 5.62

Summary for this molecule, COCCNc1ccc(S(=O)(=O)N2CC[C@H](NC(=O)c3cc(C4CC4)on3)C[C@@H]2C)cn1 : IC50 is 4.51

Lab book: IC50 of C[C@@H]1C[C@H](NC(=O)c2cc(C3CC3)on2)CCN1S(=O)(=O)c1ccccn1 noted as 7.19

Data point: CC(=O)Nc1ccc(S(=O)(=O)N2CC[C@H](NC(=O)c3cc(C4CC4)on3)C[C@@H]2C)cc1 ; IC50 = 2.74

Record CNc1ncccc1S(=O)(=O)N1CC[C@H](NC(=O)c2cc(C3CC3)on2)C[C@@H]1C . Reported IC50: 5.76

Looking up O=C(N[C@H]1CCN(S(=O)(=O)CCN2CCCC2)[C@@H](Cc2ccccc2)C1)c1cc(C2CC2)on1 , I found its IC50 recorded as 4.62

Item: CNCCCS(=O)(=O)N1CC[C@H](NC(=O)c2cc(C3CC3)on2)C[C@@H]1C | IC50: 0.181

So for NCCCS(=O)(=O)N1[C@@H]2CC[C@H]1C[C@@H](NC(=O)c1cc(C3CC3)on1)C2 , the logged IC50 turned out to be 0.129

Reported IC50 for O=C(N[C@@H]1C[C@H]2CC[C@@H](C1)N2S(=O)(=O)c1ccccc1)c1cc(C2CC2)on1 was 2.87

* * *

# tested.on: SMYD3 (Homo sapiens (Human))
# assay.overview: SMYD3 biochemical assay (SPA, 3H-SAM methylation of MEKK2 protein substrate)
# condition.details: read-out: SMYD3 Biochem IC50 (μM)*
measured.attribute: IC50 (µM)
Provide only the numeric value, understood in µM.

Entry under test: CC1CNCCC1CC(=O)N1CCC(NC(=O)c2cc(C3CC3)on2)C[C@H]1C (some centres unmarked) . Its IC50 was 0.842

Given item C[C@@H]1CC(NC(=O)c2cc(C3CC3)on2)CCN1C(=O)CCN (some centres unmarked) , the value recorded as its IC50 is 6.14

Item: C[C@H]1C[C@H](NC(=O)c2cc(C3CC3)on2)CCN1C(=O)CC1CCNCC1 | IC50: 0.172

Reported IC50 for C[C@H]1C[C@@H](NC(=O)c2cc(C3CC3)on2)CCN1S(=O)(=O)c1ccccn1 was 0.154

Noted for NCCCC(=O)N1C2CCC1CC(NC(=O)c1cc(C3CC3)on1)C2 (centres unmarked) : its IC50 reads 0.678

Short answer for CCS(=O)(=O)N1CCC(NC(=O)c2cc(C3CC3)on2)C[C@H]1C (some centres unmarked) : IC50 was 7.31

Lab note: COC(=O)C1CN(C(=O)[C@H]2CC[C@H](N)CC2)CC(C)C1NC(=O)c1cc(C2CC2)on1 (some centres unmarked) gave IC50 of 1.22

For this molecule ( C[C@H]1C[C@@H](NC(=O)c2cc(C3CC3)on2)CCN1C(=O)CC1CCNCC1 ), measured IC50 is 2.08

Value of IC50 reported for the molecule C[C@H]1C[C@@H](NC(=O)c2cc(C3CC3)on2)CCN1C(=O)CC1(CN)CCCCC1 is 5.72

For record N[C@H](Cc1c[nH]c2ccccc12)C(=O)N1CCC(NC(=O)c2cc(C3CC3)on2)CC1 the listed IC50 is 15.5

Recorded IC50 (molecule CC1CN(C(=O)CCCN)CC(C)C1NC(=O)c1cc(C2CC2)on1 (centres unmarked) ): 2.53

Consider C[C@H]1C[C@@H](NC(=O)c2cc(C3CC3)on2)CCN1S(=O)(=O)c1ccc(N(C)CCN)nc1 . Its measured IC50 is 0.0142

Consider CC1(C)CN(C(=O)[C@H]2CC[C@H](N)CC2)CCC1NC(=O)c1cc(C2CC2)on1 (some centres unmarked) . Its measured IC50 is 0.575

* * *

# tested.on: SMYD3 (Homo sapiens (Human), UniProt Q9H7B4)
# Sequence (Q9H7B4 whole entry): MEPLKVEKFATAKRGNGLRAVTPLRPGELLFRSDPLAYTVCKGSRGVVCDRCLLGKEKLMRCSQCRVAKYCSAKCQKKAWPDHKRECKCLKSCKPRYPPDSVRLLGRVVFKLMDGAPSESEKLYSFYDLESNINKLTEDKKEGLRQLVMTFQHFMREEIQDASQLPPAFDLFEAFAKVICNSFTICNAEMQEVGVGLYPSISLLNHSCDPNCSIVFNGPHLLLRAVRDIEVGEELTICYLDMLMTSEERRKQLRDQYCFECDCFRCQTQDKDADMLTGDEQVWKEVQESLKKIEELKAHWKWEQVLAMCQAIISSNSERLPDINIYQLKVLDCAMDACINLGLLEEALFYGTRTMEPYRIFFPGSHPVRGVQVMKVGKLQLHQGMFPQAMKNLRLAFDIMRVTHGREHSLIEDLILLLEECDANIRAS
# assay.overview: SMYD3 cell assay (Trimethyl-MEKK2 In-Cell Western in 293T/17 cells)
# Type: cell-based
# condition.details: read-out: SMYD3 Cell IC50 (μM)*
Counter-ions that a name gives are not always drawn.
I'd be grateful if you could share measured IC50 for these entries.
Expressed in µM, but write only the number.

Lab note: measured IC50 of CC(C)c1cc(C[C@@H](CN)C(=O)N2CCC(NC(=O)c3cc(C4CC4)on3)CC2)ccc1O [Cpd. No. 121, hydrochloride salt] was 0.68

Entry C[C@H]1C[C@H](NC(=O)c2cc(C3CC3)on2)CCN1S(=O)(=O)Cc1ccccc1 , IC50 reported as 14.1

IC50 recorded for this compound, C[C@H]1C[C@H](NC(=O)c2cc(C3CC3)on2)CCN1C(=O)CC1CCNCC1 , is 3.18

Query NC1CCC(C(=O)N2CCC(NC(=O)c3cc(C4CC4)on3)C3(CC3)C2)CC1 (stereo not drawn) yields IC50 of 1.76

Value of IC50 reported for the compound C[C@@H]1CN(S(=O)(=O)CCN)CCC1NC(=O)c1cc(C2CC2)on1 (stereo partly drawn) is 1.05

* * *

# tested.on: SMYD3 (Homo sapiens (Human), UniProt Q9H7B4)
# assay.overview: SMYD3 biochemical assay (SPA, 3H-SAM methylation of MEKK2 protein substrate)
# condition.details: read-out: SMYD3 Biochem IC50*
measured.attribute: pIC50
# pIC50: negative log10 of molar concentration; output just the value

Measured pIC50 of CCC1CNCCN1S(=O)(=O)N1[C@@H]2CC[C@H]1C[C@@H](NC(=O)c1cc(C3CC3)on1)C2 (stereo partly drawn) : 7.82

Please fill in: pIC50 reported for CCCN(C)C1CCN(S(=O)(=O)N2[C@@H]3CC[C@H]2C[C@@H](NC(=O)c2cc(C4CC4)on2)C3)CC1 = 8.11

Lab book: pIC50 of CC1(N)CCC(S(=O)(=O)N2[C@@H]3CC[C@H]2C[C@@H](NC(=O)c2cc(C4CC4)on2)C3)CC1 (stereo partly drawn) noted as 7.85

* * *

Record form. Attribute: pIC50. Fill in for each entry.
# tested.on: UniProt Q9H7B4
# assay.overview: SMYD3 cell assay (Trimethyl-MEKK2 In-Cell Western in 293T/17 cells)
# Format: cell-based
# condition.details: average of n = 1 to n = 50; read-out: SMYD3 Cell IC50
API: returns pIC50 as number; meaning -log10 of concentration in mol/L.

The compound C[C@@H]1C[C@H](NC(=O)c2cc(C3CC3)on2)CCN1C(=O)c1ccc(CN(C)C)cc1 showed pIC50 equal to 5.81

The recorded pIC50 for entry O=C(N[C@H]1CCN(S(=O)(=O)C2CCNC2)[C@@H](Cc2ccccc2)C1)c1cc(C2CC2)on1 (stereo partly shown) equals 5.69

Entry CC[C@@H]1CN(S(=O)(=O)N2CC[C@H](NC(=O)c3cc(C4CC4)on3)C[C@@H]2C)CCN1C — recorded pIC50 = 5.94

Short answer for C[C@H](N)c1ccc(C(=O)N2CC[C@@H](NC(=O)c3cc(C4CC4)on3)C[C@H]2C)cc1 : pIC50 was 5.89

Please fill in: pIC50 reported for C[C@H]1CN(S(=O)(=O)CC2CCN(Cc3ccccc3)CC2)CC[C@H]1NC(=O)c1cc(C2CC2)on1 = 6.30

Just so you know, measured pIC50 for C[C@H]1CN(S(=O)(=O)N2CC[C@H](NC(=O)c3cc(C4CC4)on3)C[C@@H]2C)CCN1C came out at 5.87

The reported value for CCC1CN(S(=O)(=O)N2[C@@H]3CC[C@H]2C[C@@H](NC(=O)c2cc(C4CC4)on2)C3)CCN1 (stereo partly shown) in terms of pIC50 is 6.44

* * *

Exercise: for every item that follows, state its recorded IC50.
# tested.on: SMYD3 (Homo sapiens (Human))
# assay.overview: SMYD3 biochemical assay (SPA, 3H-SAM methylation of MEKK2 protein substrate)
# condition.details: read-out: SMYD3 Biochem IC50 (μM)*
Value expressed in µM; do not type the unit.

Summary for this compound, C[C@H]1CN(C(=O)CCCN)CC[C@H]1NC(=O)c1cc(C2CC2)on1 : IC50 is 1.37

// IC50 value for NCC(=O)NC[C@@H](Cc1ccc(O)c(I)c1)C(=O)N1CCC(NC(=O)c2cc(C3CC3)on2)CC1 : 9.41

Quick note, IC50 for O=C(N[C@@H]1C[C@H]2CC[C@@H](C1)N2S(=O)(=O)CCN1CCCC1)c1cc(C2CC2)on1 (single isomer, unassigned) [Cpd. No. 436] landed at 0.0613
